# measurement-protocol: qHTS of pediatric cancer cell lines to identify multiple opportunities for drug repurposing: Confirmatory screen for U-2 OS cells (AID 1347122); note: potency is the fitted concentration of half-maximal effect; nearly all actives have a fitted effect of over 65% in size
# test-settings: U-2 OS osteosarcoma cell viability; series mostly up to 45.9 µM
Results filed as inconclusive are left out. Activity calls are given as the source filed them. Calls come from the whole dose curve; as a rule, active = well fitted cell-killing curve with a large enough effect; inconclusive = small, poorly fitted or top-dose-only effect; inactive = no such curve, though single readings can be large or run the other way.
quantity-name: Potency

Reported Potency for CC(C)(C)c1cc(NC(=O)Nc2ccc(-c3cn4c(n3)sc3cc(OCCN5CCOCC5)ccc34)cc2)no1 : what is it? 20.8 µM (active)

Try this compound next: COc1cc2c(Oc3ccc(NC(=O)C4(C(=O)Nc5ccc(F)cc5)CC4)cc3F)ccnc2cc1OCCCN1CCOCC1 8.27 µM (active)

Also CCN1CCN(Cc2ccc(-c3cc4c(N[C@H](C)c5ccccc5)ncnc4[nH]3)cc2)CC1 ? 12 µM (active)

Queued: CN(c1ncccc1CNc1nc(Nc2ccc3c(c2)CC(=O)N3)ncc1C(F)(F)F)S(C)(=O)=O 7.37 µM (active)

====

# Tested on: Zika virus NS2B-NS3 protease
# measurement-protocol: Primary screen GU AMC qHTS for Zika virus inhibitors (AID 1347154); note: nearly all actives have a fitted effect of over 70% in size
# test-settings: Zika NS2B-NS3 unlinked protease, AMC fluorogenic substrate; series mostly up to 54.1 µM
Records with an inconclusive call do not appear. Activity calls are given as the source filed them. The call rests on the fitted dose curve; in most records, active means well fitted inhibition curve with a large enough effect; inconclusive means small, poorly fitted or top-dose-only effect; inactive means flat fitted curve, though single readings scatter.
One label from this list, please: active, inactive

Returns: the outcome recorded for CN1CCN(c2cc(C(=O)Nc3ccc4c(c3)-c3c(c(C(N)=O)nn3-c3ccc(F)cc3)CC4)c(Cl)cn2)CC1 in this assay. inactive

Try this compound too: CC(C)c1noc(N2CCC(COc3ccc(-c4ccc(S(C)(=O)=O)cc4)nc3)CC2)n1 inactive

Now consider Cc1ccc(CN2CCNCC2)cc1NC(=O)CNc1ccc(F)c(F)c1 . inactive

Lookup COc1ccc(C(=O)CC2(O)C(=O)Nc3c(Cl)ccc(Cl)c32)cc1 (stereo not drawn) inactive

Okay, and Cn1cc(-c2[nH]c3cc(NC(=O)[C@H](N)C4CCCCC4)cc4c3c2C=NNC4=O)cn1 ? inactive

Again, but for Cn1c(=O)n(-c2ccc(C(C)(C)C#N)cc2)c2c3cc(-c4cnc5ccccc5c4)ccc3ncc21 inactive

Further, for Cn1c2cc(S(C)=O)sc2c2cnn(Cc3cccc(N)c3)c(=O)c21 (stereo not drawn) ? inactive

Consider next the compound Cc1cc(Nc2cc(N3CCN(C)CC3)nc(C=Cc3ccccc3)n2)n[nH]1 in the same way. inactive

And CC(C)Nc1cc(C(F)(F)F)cc2nc(NC(=O)c3cccnc3)nn12 ? inactive

Record: CC(O)C1C(=O)N2C(C(=O)O)=C(SC3CNC(C(=O)N(C)C)C3)C(C)C12 (stereo not drawn) inactive

And then CC(=O)OCC(=O)[C@@]1(O)[C@H](C)C[C@H]2[C@@H]3C=C(C)C4=Cc5c(cnn5-c5ccccc5)C[C@]4(C)[C@@H]3[C@@H](O)C[C@@]21C , what is it? inactive

Same read-out for Cc1cnc(-c2cnc(NCCNc3ccc(C#N)cn3)nc2-c2ccc(Cl)cc2Cl)[nH]1 ? inactive

Then what about the compound NC(=O)c1c(OCc2c(F)cc(Br)cc2F)nsc1NC(=O)NCCCCN1CCCC1 ? inactive

What do you get for O=C(NCCCNc1nc(Nc2cccc(NC(=O)N3CCCC3)c2)ncc1I)c1cccs1 ? inactive

Can you check CC(C)(C)c1cc(NC(=O)Nc2ccc(-c3cn4c(n3)sc3cc(OCCN5CCOCC5)ccc34)cc2)no1 next? inactive

Here is the next compound: Cc1ccc(-c2ncn(-c3ccc(Nc4nccc(-c5cccc(N6CCOCC6)c5)n4)cc3)n2)cn1 inactive

And the next one, Cn1cc(-c2ccncc2)c(-c2ccc(OCc3ccc4ccccc4n3)cc2)n1 ? inactive

// same read-out, input: CNc1nccc(-c2cccnc2Oc2cc(C(=O)Nc3cccc(C(F)(F)F)c3)ccc2C)n1 inactive

Repeat with CC[C@@H]1C(=O)N(C)c2cnc(Nc3ccc(C(=O)NC4CCN(C)CC4)cc3OC)nc2N1C1CCCC1 inactive

Can you handle CC(=O)c1c(C)c2cnc(Nc3ccc(N4CCNCC4)cn3)nc2n(C2CCCC2)c1=O next? inactive

Now the compound Nc1cc(C(F)(F)F)c(-c2cc(N3CCOCC3)nc(N3CCOCC3)n2)cn1 inactive

Check CN1CCN(Cc2ccc(NC(=O)Nc3ccc(Oc4cc(NC(=O)C5CC5)ncn4)cc3)cc2C(F)(F)F)CC1 too. inactive

Now give it for Nc1ncnc2c1c(-c1cnc3[nH]ccc3c1)nn2C1CCCC1 too. inactive

What do you have for CNC(=O)c1ccc(-c2cnc3ncc(Cc4ccc5ncccc5c4)n3n2)cc1F ? inactive

Also check CCN(CC)CCCCNc1ncc2cc(-c3cc(OC)cc(OC)c3)c(NC(=O)NC(C)(C)C)nc2n1 active

For COc1cc(C(=O)N2CCC(N3CCN(C)CC3)CC2)ccc1Nc1ncc2c(n1)N(C)c1ccccc1C(=O)N2C then? inactive

One more compound: Cc1cn(-c2cc(NC(=O)c3ccc(C)c(Nc4nccc(-c5cccnc5)n4)c3)cc(C(F)(F)F)c2)cn1 inactive

Field entry: CC(C)C[C@H](NC(=O)CNC(=O)c1cc(Cl)ccc1Cl)B(O)O inactive

Could you do the same for CN(c1ncccc1CNc1nc(Nc2ccc3c(c2)CC(=O)N3)ncc1C(F)(F)F)S(C)(=O)=O , please? inactive

Do the same for CCCCc1nc2cc(C=CC(=O)NO)ccc2n1CCN(CC)CC please inactive

How about Nc1ccccc1NC(=O)c1ccc(CNC(=O)OCc2cccnc2)cc1 ? inactive

Here is the next compound: Cc1[nH]c2ccccc2c1CCNCc1ccc(C=CC(=O)NO)cc1 inactive

Also COc1cccc(Nc2c(C(N)=O)cnc3c(C)cc(S(=O)(=O)c4cccc(C(=O)N(C)C)c4)cc23)c1 ? inactive

Consider next the compound Nc1ccc(S(=O)(=O)Nc2ncccn2)cc1 in the same way. inactive

Another compound: CC(C)c1ccccc1Cc1cc(C(=O)Nc2ccc(S(=O)(=O)c3ccccc3C(C)(C)C)cc2)c(O)c(O)c1O active

Again, but for CC1(C)CC(=O)c2c(C(F)(F)F)nn(-c3ccc(C(N)=O)c(NC4CCC(OC(=O)CN)CC4)c3)c2C1 (stereo not drawn) inactive

Okay, and CN1CCN(c2ccc3nc(-c4c(N)c5c(F)cccc5[nH]c4=O)[nH]c3c2)CC1 ? inactive

Same lookup for CN(C)Cc1c(C(=O)NCCOc2ccc(C(=O)NO)cc2)oc2ccccc12 , please. inactive
